Source: PubChem BioAssay (NCI)

Can you tell me growth for the items I'm about to list?
System: UACC-62 melanoma
procedure_text: NCI-60 one-dose screen, 48 h (100 = growth as untreated, 0 = no growth, -100 = all killed)
test_settings: 10 µM unless noted
Compounds without any hit were thinned out: in the full panel of roughly 83,000, 20% have a hit.
The answer is to be given in %; state only the numeric part.

Challenge: Supply recorded growth for CCOC(=O)CC/C(C)=N\Nc1ccc([N+](=O)[O-])cc1 here.
Response given: 23.5

Challenge: Retrieve growth measured for O=C(/C=C/CN1CCOCC1)Nc1cc2c(Nc3ccc(F)c(Cl)c3F)ncnc2cc1OCCOC(F)F and print it.
Response given: 65.7

Challenge: For the compound COc1ccc(/C=c2\sc3n(c2=O)C2C(NN=3)N(C)C(=O)N2C)cc1 (stereo not given) , give its measured growth value.
Response given: 41.9

Challenge: Report growth, nothing else, for this compound: Cc1ccc2c(c1)C(C)Cc1c(N(C)C)ncnc1N2C (stereo not given)
Response given: 33

Challenge: Determine from records and report growth for COC1=CC(c2ccc[nH]2)=N/C1=C\c1[nH]c(C)c(C(=O)CCCCC(=O)NCc2ccccc2)c1C
Response given: 89.4

====

Please go through the items and note down their growth.
Tested on: SK-MEL-28 melanoma
procedure_text: NCI-60 one-dose screen, 48 h (100 = growth as untreated, 0 = no growth, -100 = all killed)
test_settings: 10 µM unless noted
This is part of a sample that, as a whole, favours compounds with a hit. Of some 83,000 tested, about 20% had one in any assay.
# number only, unit % dropped from output

Challenge: Give me measured growth, please, for this molecule: c1cc(-c2ccc3c(c2)OCO3)n2nccc2n1
Response given: 105

Challenge: Please supply the value of reported growth for the item Cc1ccc(C2=NN(c3ccc(S(=O)(=O)NC(=O)NCc4ccccc4)cc3)C(c3ccc(N(C)C)cc3)C2)c(C)c1 (stereo unspecified)
Response given: 26.6

Challenge: Could you please provide reported growth for Cc1ccc2nc(SCn3nnc4ccccc4c3=O)[nH]c2c1 ? Thanks!
Response given: 121

Challenge: Report growth for O=c1[nH]c2ccccc2cc1-c1nnc(Cc2ccccc2)o1
Response given: 101

Challenge: Name the recorded growth of the item CCN(CC)CCC(=O)c1cccc2ccccc12 in your answer.
Response given: 111

Challenge: Give the reported value of growth for this record: CNC(=O)c1cc(Oc2ccc3c(c2)sc2nc(-c4ccc(Cl)cc4)cn23)ccn1
Response given: 104

Challenge: Consider the molecule c1cncc(CNc2ccccc2-c2nnc(Nc3ccc4c(c3)OCCO4)o2)c1 . State its measured growth.
Response given: 68.9

Challenge: Give growth for COC(=O)CCCCN=Cc1c(O)c(O)c(C(C)C)c2cc(C)c(-c3c(C)cc4c(C(C)C)c(O)c(O)c(C=NCCCCC(=O)OC)c4c3O)c(O)c12
Response given: 31.1

Challenge: Consider the molecule CCSc1nnc(NC(=O)COc2ccc(Cl)cc2C)s1 . State its measured growth.
Response given: 114

Challenge: Give the reported value of growth for this record: O=C1NC(Cc2c[nH]c3ccccc23)C(=O)N1Cc1ccc(Cl)cc1 (stereo unspecified)
Response given: 109

Challenge: In one line, give reported growth of the entry N=C(N)c1ccc(-c2ccc(-c3ccc(Cl)cc3)o2)nc1 .
Response given: -94.2

Challenge: Give me measured growth, please, for this molecule: COC(=O)c1ccc2nc(-c3cc4ccccc4n3C)n(CCCCOc3cc4c(cc3OC)C(=O)N3CCC[C@H]3C=N4)c2c1
Response given: -57.1

Challenge: State, in one line, measured growth of O=C(/C=C/CN1CCOCC1)Nc1cc2c(Nc3cccc(Cl)c3F)ncnc2cc1OCCOC(F)F
Response given: 101

Challenge: Quote growth reported for O=[N+]([O-])c1c(S(=O)(=O)O)cc2cc(S(=O)(=O)O)ccc2c1[N+](=O)[O-] please.
Response given: 103

Challenge: Given the molecule O=C(O)Cc1ccc2c(c1)Cc1cccnc1O2 , write its reported growth.
Response given: 109

Challenge: Supply measured growth of CCN1C(=O)N(CC)C2C1NN=c1s/c(=C\c3ccccn3)c(=O)n12 (stereo unspecified) in your reply.
Response given: 57.3

Challenge: Please report the measured growth for CCCCn1c(=O)c(C2CNC(=O)c3ccccc3N2)cc2ccccc21 (stereo unspecified)
Response given: 102

Challenge: Please give measured growth of the following entry: O=C(/C=C/CN1CCOCC1)Nc1cc2c(Nc3ccc(F)c(Cl)c3F)ncnc2cc1OCCOC(F)F
Response given: 77.5

Challenge: # return recorded growth for entry Cc1ccc(Oc2nc3ccccc3cc2-c2nnc(Cn3c(COc4ccccc4)nc4ccccc43)o2)cc1
Response given: 90.9

Challenge: Please look at this molecule and report its growth: Cc1sc2nc(CSc3nnc(-c4ccco4)o3)[nH]c(=O)c2c1C
Response given: 110

Challenge: Fill in reported growth for this entry: CCN(Cc1ccccc1)c1ccc(SC#N)cc1
Response given: 86.7

====

Test system: UACC-62 melanoma
procedure_text: NCI-60 one-dose screen, 48 h
test_settings: 10 µM unless noted
The panel holds about 83,000 compounds, 20% with a hit somewhere; the sample as a whole holds those more often. Activity calls are given as the source filed them. Rule for the calls: active = growth percent below 10; inactive = the rest.
Please reply with one of these outcomes: yes (1) for active, no (0) for inactive

Challenge: Lab log entry: ClC1=C(Cl)C(Cl)=C(Cl)C1=Cc1ccc(Cl)cc1Cl — outcome as called in the assay?
Response given: yes (1)

Challenge: Answer briefly: the call reported for FC(F)(F)c1cccc(-n2nnc3cnc(Nc4ccc(N5CCCCC5)cc4)nc32)c1 in this assay.
Response given: no (0)

Challenge: GET /call?item= COc1cc2c(cc1OCCCCn1c(-c3cc(=O)c4ccccc4o3)nc3ccccc31)N=C[C@@H]1CCCN1C2=O returns the recorded outcome of this test.
Response given: no (0)

Challenge: Test call, this compound: COc1ccc(C(=O)c2cc(OC)c(OC)c(OC)c2)cc1/C=C/C(=O)c1ccc(OC)c(OC)c1
Response given: no (0)

Challenge: Hello, I am checking results. What call was entered for Nc1ccc(S(=O)(=O)c2ccc(Cl)cc2)cc1 ?
Response given: no (0)

Challenge: # fetch the recorded call for NC(=O)NC(=O)/C=C/C(=O)OCCCl here
Response given: no (0)

Challenge: Recorded call for CCCCCCCN(CCCCCCC)C(=N)c1ccc(OC)c2ccccc12 ?
Response given: yes (1)

Challenge: Which outcome was assigned to Cc1oc2nc[nH]c(=O)c2c1C(=O)/C=C/c1ccc(Cl)cc1Cl in this test?
Response given: no (0)

Challenge: Query: recorded result category for O=C(Nc1ccc(Cl)cc1)c1cc(-c2ccc(F)cc2)c2sc(=O)[nH]c2n1 in this test
Response given: no (0)

Challenge: Recorded test call requested for CCN(Cc1ccccc1)c1ccc(SC#N)cc1
Response given: no (0)

====

System: OVCAR-8 ovarian
procedure_text: NCI-60 one-dose screen, 48 h (100 = growth as untreated, 0 = no growth, -100 = all killed)
test_settings: 10 µM unless noted
The panel holds about 83,000 compounds, 20% with a hit somewhere; the sample as a whole holds those more often. Active and inactive are the calls of the source. How the source made its calls: active means growth percent below 10; inactive means the rest.
measurement_kind: growth

Challenge: Supply reported growth belonging to this compound: CC(=O)Nc1nc(C(=O)N2N=C(C)/C(=C/c3cccs3)C2=O)cs1
Response given: 103% (inactive)

Challenge: Return growth (reported value) for this compound: COc1cc(C2C=C(C)N=C3SC(C)=NN32)cc(OC)c1OC (stereo unspecified)
Response given: 104% (inactive)

Challenge: Give the reported growth for this compound. O=C1OC(c2ccccc2)=N/C1=C\c1ccc([N+](=O)[O-])cc1
Response given: 111% (inactive)

Challenge: Report growth for COc1cccc(-c2nc3sccn3c2-c2ccnc(NCCNS(=O)(=O)c3ccccc3)n2)c1
Response given: 49.2% (inactive)

Challenge: Tell me measured growth for CC(=O)Nc1ccc(S(=O)(=O)N2C(=O)CCC2C(=O)Nc2ccc(Br)cc2)cc1 (stereo unspecified) please.
Response given: 47.5% (inactive)

Challenge: Please report the measured growth for COc1cc2nc(Cl)nc(NCCO)c2cc1OC
Response given: 98.3% (inactive)

Challenge: Assign growth to the following record: CCN(CC)S(=O)(=O)c1ccc2[nH]c(=O)cc(C(=O)Nc3ccc(OC)cc3OC)c2c1
Response given: 109% (inactive)

Challenge: Return value of growth for input COc1ccc(-n2c(C)cc(-c3ccccc3)c2C)cc1 , no commentary.
Response given: 51.6% (inactive)

Challenge: Note growth for the compound shown: CC(C)[C@H](CO)Nc1nc(Nc2ccc(C(=O)NCCNS(=O)(=O)c3cccc4c(N(C)C)cccc34)c(Cl)c2)c2ncn(C(C)C)c2n1
Response given: 9.87% (active)

Challenge: Please report growth for the following compound: O=C(Cc1n[nH]c(=O)c2ccccc12)OCc1c(Cl)cccc1Cl
Response given: 102% (inactive)

Challenge: Report growth for O=C1NCC(c2cc3ccccc3[nH]c2=O)Nc2ccccc21 (stereo unspecified)
Response given: 103% (inactive)

Challenge: Hello, please tell me recorded growth for this one: COc1ccc(/C(=N/O)c2cc(OC)c(OC)c(OC)c2)c(OC)c1N
Response given: 40.7% (inactive)

Challenge: Name the recorded growth of the compound listed here: COc1cc(C2C=C(C)N=C3SC=CN32)cc(OC)c1OC (stereo unspecified)
Response given: 103% (inactive)

Challenge: # return recorded growth for entry Cc1c(C(=O)NCc2ccccc2)[n+](=O)c2cc(F)ccc2n1[O-]
Response given: 116% (inactive)

Challenge: Consider the compound NC(CC(N)C(=O)O)C(=O)O (stereo unspecified) . State its measured growth.
Response given: 100% (inactive)

Challenge: Provide one value: measured growth of COc1ccc(/C=C/C(=O)c2ccc(B(O)O)cc2)cc1O
Response given: 89.9% (inactive)

Challenge: Using the record for COc1cc(CCn2nnc3c(Nc4ccc(N5CCOCC5)cc4)ncnc32)cc(OC)c1 , state its measured growth.
Response given: 109% (inactive)

Challenge: Please list growth recorded for the compound COc1cc(CCn2nnc3c(NCCCCO)ncnc32)cc(OC)c1
Response given: 101% (inactive)

Challenge: Supply growth value. Item: C=C1C(=O)O[C@H]2[C@H](O)[C@@H](C)CCC/C(C)=C/CC[C@@]3(C)O[C@@H]3C[C@@H]12
Response given: 88.7% (inactive)

Challenge: Fill in reported growth for this entry: Cc1nc2sccn2c1-c1csc(Nc2ccccc2Cl)n1
Response given: 53% (inactive)

Challenge: Give recorded growth. COC(=O)c1ccc2nc(-c3cc4ccccc4n3C)n(CCCCOc3cc4c(cc3OC)C(=O)N3CCC[C@H]3C=N4)c2c1
Response given: 16.5% (inactive)
